test system: HEK-293T; assay: Multiplex assay against HEK293T; assay type: toxicity, cell-based; conditions: human, 48 h, 1 µM, compound concentration 1 uM, replicate 1
Sorting guide: entries reporting Population Mitochondria Different-Phenotype (%) beneath 20% go in the Met pile, the rest go in the Not met pile.

Dear colleague, could you confirm whether Population Mitochondria Different-Phenotype (%) of CC(C)COc1ccc(CNC(=O)N(Cc2ccc(F)cc2)C2CCN(C)CC2)cc1 [PIMAVANSERIN] falls below 20%? Thanks.
Not met

Dear colleague, could you confirm whether Population Mitochondria Different-Phenotype (%) of "C[C@H](N)COC(=O)[C@@H](CCCCN)NC(=O)Cc1c(-c2ccc3ccccc3c2)[nH]c2c1ccc1ccccc12" falls below 20%? Thanks.
Met

Dear colleague, could you confirm whether Population Mitochondria Different-Phenotype (%) of "CCc1cc2cc(NS(=O)(=O)c3ccc(C#N)cc3)ccc2n(CC)c1=O" falls below 20%? Thanks.
Met

Dear colleague, could you confirm whether Population Mitochondria Different-Phenotype (%) of Cl.N=C(N)NC(=O)Cc1c(Cl)cccc1Cl [GUANFACINE HYDROCHLORIDE] falls below 20%? Thanks.
Not met

Dear colleague, could you confirm whether Population Mitochondria Different-Phenotype (%) of O=C(NCCN1CCC(n2c(=O)[nH]c3cc(Cl)ccc32)CC1)c1ccc(F)cc1 [HALOPEMIDE] falls below 20%? Thanks.
Not met

Dear colleague, could you confirm whether Population Mitochondria Different-Phenotype (%) of "O=C(CCCc1ccccc1)Nc1nc2ccccc2c(=O)s1" falls below 20%? Thanks.
Met

Dear colleague, could you confirm whether Population Mitochondria Different-Phenotype (%) of "Cc1cccc(NC(=O)CN2CCC(c3ccccn3)CC2)c1.Cl.Cl" falls below 20%? Thanks.
Not met

Dear colleague, could you confirm whether Population Mitochondria Different-Phenotype (%) of Cc1c(CC(=O)O)c2cccnc2n1Cc1ccc(S(C)(=O)=O)cc1C(F)(F)F [FEVIPIPRANT] falls below 20%? Thanks.
Met

Dear colleague, could you confirm whether Population Mitochondria Different-Phenotype (%) of "CN1CCN(c2cc(-c3ccccc3)nc(N)n2)CC1" falls below 20%? Thanks.
Met

Dear colleague, could you confirm whether Population Mitochondria Different-Phenotype (%) of "COc1ccccc1N1CCN(C[C@@H](C(=O)NC(C)(C)C)c2ccccc2)CC1.Cl.Cl" falls below 20%? Thanks.
Met

---

tested on: U2OS; assay: Multiplex assay against U2OS; type: toxicity, cell-based; conditions: human, 24 h, 10 µM, compound concentration 10 uM, replicate 2
Consider the following molecules; for each one, report its Population Membrane Permeable-Phenotype (%).
Provide the reading as a plain figure in %.

Entry under review: "CC(C)COc1ccc(CNC(=O)N(Cc2ccc(F)cc2)C2CCN(C)CC2)cc1" . Reported Population Membrane Permeable-Phenotype (%)?
30

Entry under review: "COc1ccccc1N1CCN(C[C@@H](C(=O)NC(C)(C)C)c2ccccc2)CC1.Cl.Cl" . Reported Population Membrane Permeable-Phenotype (%)?
39

Entry under review: "O=C1[C@H](Cc2ccc(O)cc2)N2C(=O)CCN(C(=O)NCc3ccccc3)[C@H]2CN1Cc1cccc2ccccc12" . Reported Population Membrane Permeable-Phenotype (%)?
36

Entry under review: Cl.N=C(N)NC(=O)Cc1c(Cl)cccc1Cl [GUANFACINE HYDROCHLORIDE] . Reported Population Membrane Permeable-Phenotype (%)?
10

Entry under review: "CN1CCN(c2cc(-c3ccccc3)nc(N)n2)CC1" . Reported Population Membrane Permeable-Phenotype (%)?
4

Data provenance: ChEMBL document CHEMBL5058577
